Give measured pIC50 for each item. Keep answers brief.
# Test system: MOLT-4 cancer cell line
# assay.notes: Cell proliferation assay, MOLT-4 cancer cell line (ATPlite)
# Assay type: cell-based
# assay.setup: Homo sapiens, MOLT-4; 72 hours incubation, ATPlite 1Step; read-out: IC50 MOLT-4 cell proliferation
pIC50: −log10 of the molar value.

stdin: Test system MOLT-4 cancer cell line; read-out pIC50; what value for COc1cc(C(=O)NC2CCN(C)CC2)ccc1Nc1ncc2c(n1)-n1ccc(C(=O)Nc3c(C)cccc3Cl)c1CC2 [Example 35] ?
stdout: > 7.30

stdin: Next: Cc1cccc(C)c1NC(=O)c1ccn2c1CCc1cnc(Nc3ccc(C(=O)NC4CCN(C)CC4)cc3OC(F)F)nc1-2 [Example 37]
stdout: > 7.30

stdin: Try the compound COc1cc(N2CCN(C(=O)NC(C)C)CC2)ccc1Nc1ncc2c(n1)-n1ccc(C(=O)Nc3c(C)cccc3C)c1CC2 [Example 145]
stdout: > 7.30

stdin: What about this compound? COCCn1nc(C)c(NC(=O)c2ccn3c2CCc2cnc(Nc4ccc(N5CCNCC5)cc4OC)nc2-3)c1C [Example 16]
stdout: 6.82 to 7.30

stdin: Record: COc1cc(C(=O)NC(C)C)ccc1Nc1ncc2c(n1)-n1ccc(C(=O)Nc3c(C)cccc3C)c1CC2 [Example 120]
stdout: > 7.30

stdin: // repeat for CCOc1cc(N2CCN(C)CC2)ccc1Nc1ncc2c(n1)-n1ccc(C(=O)Nc3c(C)cccc3CC)c1CC2 [Example 32] and report
stdout: 6.82 to 7.30

Answer for every listed entry: what is its pIC50? The entries follow.
1. Cc1cc(N2CCN(C)CC2)ccc1Nc1ncc2c(n1)-n1ccc(C(=O)Nc3c(C)cccc3C)c1CC2 [Example 63]
2. CCc1cccc(CC)c1NC(=O)c1ccn2c1CCc1cnc(Nc3ccc(-c4cnn(C)c4)cc3OC)nc1-2 [Example 38]
3. Cc1cccc(Br)c1NC(=O)c1ccn2c1CCc1cnc(Nc3ccc(N4CCOCC4)nc3C)nc1-2 [Example 70]
4. CCc1nn(CCOC)c(CC)c1NC(=O)c1ccn2c1CCc1cnc(Nc3ccc(N4CCN(C)CC4)cc3OC)nc1-2 [Example 109]

stdout:
["> 7.30", "6.82 to 7.30", "> 7.30", "> 7.30"]

###

For each record, write down the corresponding IC50.
# Test system: MOLT-4 cancer cell line
# assay.notes: Cell proliferation assay, MOLT-4 cancer cell line (ATPlite)
# Format: cell-based
# assay.setup: Homo sapiens, MOLT-4; 72 hours incubation, ATPlite 1Step; read-out: IC50 MOLT-4 cell proliferation

stdin: Requested read-out: IC50. Entry: CCc1cccc(CC)c1NC(=O)c1ccn2c1CCc1cnc(Nc3ccc(N(C)CCCN(C)C)cc3OC)nc1-2 [Example 134]
stdout: < 50 nM

stdin: Input Cc1cc(N2CCNCC2)ccc1Nc1ncc2c(n1)-n1ccc(C(=O)Nc3c(C)cccc3Br)c1CC2 [Example 81]
stdout: < 50 nM

Need IC50 for each of these compounds.
1. CCc1cccc(CC)c1NC(=O)c1ccn2c1CCc1cnc(Nc3ccc(N4CCNCC4)cc3C)nc1-2 [Example 80]
2. CCc1n[nH]c(CC)c1NC(=O)c1ccn2c1CCc1cnc(Nc3ccc(OC4CNC4)cc3OC)nc1-2 [Example 92]
3. COCCOCCOCCn1nc(C)c(NC(=O)c2ccn3c2CCc2cnc(Nc4ccc(OCCOC)cc4OC)nc2-3)c1C [Example 137]
4. CCc1n[nH]c(CC)c1NC(=O)c1ccn2c1CCc1cnc(Nc3ccc(OC4CCN(C)CC4)cc3C)nc1-2 [Example 47]
5. CCc1cccc(C)c1NC(=O)c1ccn2c1CCc1cnc(Nc3ccc(N4CCN(C)CC4)cc3C)nc1-2 [Example 64]
6. COc1cc(N2CCN(C)CC2)ccc1Nc1ncc2c(n1)-n1ccc(C(=O)Nc3c(Cl)cccc3Cl)c1CC2 [Example 61]

stdout:
< 50 nM
50 to 150 nM
< 50 nM
< 50 nM
< 50 nM
< 50 nM

// for each compound in input: emit IC50
1. COc1cc(N2CCN(C)CC2)ccc1Nc1ncc2c(n1)-n1ccc(C(=O)Nc3c(C)cc(C)cc3C)c1CC2 [Example 22]
2. CCc1nn(CCOC)c(CC)c1NC(=O)c1ccn2c1CCc1cnc(Nc3ccc(N4CCNCC4)cc3OC)nc1-2 [Example 19]

stdout:
1: < 50 nM; 2: < 50 nM

###

# System: MOLT-4 cancer cell line
# assay.notes: Cell proliferation assay, MOLT-4 cancer cell line (ATPlite);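 note: luminescence read-out, percent growth versus compound-free DMSO wells as maximum growth, start-of-incubation signal separating growth from cell death, IC50 from logistic curve fit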
# Format: cell-based
# assay.setup: Homo sapiens, MOLT-4; 72 hours incubation, ATPlite 1Step; read-out: IC50 MOLT-4 cell proliferation
quantity.kind: IC50

Please review the following examples before continuing.
stdin: Given the molecule "COCCn1nc(C)c(NC(=O)c2ccn3c2CCc2cnc(Nc4ccc(OC5CCN(C)CC5)cc4OC)nc2-3)c1C" , what is its reported IC50?
stdout: 50 to 150 nM

stdin: Then this molecule: "CCc1ccccc1NC(=O)c1ccn2c1CCc1cnc(Nc3ccc(N4CCN(C)CC4)cc3OC)nc1-2"
stdout: 50 to 150 nM

Moving on to the next molecule.
stdin: What does the data say about its IC50? Entry: "COCCn1nc(C)c(NC(=O)c2ccn3c2ccc2cnc(Nc4ccc(N5CCNCC5)cc4OC)nc23)c1C"
stdout: < 50 nM
